# Target entity: cloned human or rodent CNS receptors, channels, and transporters (PDSP panel) (Homo sapiens, UniProt P28335)
# Construct: expressed in transfected cells
# Sequence (P28335 33-458): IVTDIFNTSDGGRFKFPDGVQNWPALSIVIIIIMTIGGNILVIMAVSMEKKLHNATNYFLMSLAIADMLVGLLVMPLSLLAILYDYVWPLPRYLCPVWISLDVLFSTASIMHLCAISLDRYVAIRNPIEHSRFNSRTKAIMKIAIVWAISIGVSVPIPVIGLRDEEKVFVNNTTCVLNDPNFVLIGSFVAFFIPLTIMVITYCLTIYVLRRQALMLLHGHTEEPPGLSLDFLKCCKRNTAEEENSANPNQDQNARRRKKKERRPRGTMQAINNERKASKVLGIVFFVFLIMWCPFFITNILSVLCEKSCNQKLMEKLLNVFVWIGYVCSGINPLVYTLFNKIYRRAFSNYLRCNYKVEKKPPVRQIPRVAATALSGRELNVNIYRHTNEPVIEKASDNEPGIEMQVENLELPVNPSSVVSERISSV
# Assay summary: PDSP GPCR panel primary binding assays at 10 μM
# Experimental setup: 5-HT2C; primary assay, mean inhibition
Provide the recorded Mean % for the entries that follow.
Give bare numbers, in %.

{"columns": ["Compound", "Units text", "Mean %"],
 "data": [
  ["CC(=O)N1CCC(NC(=O)NC23CC4CC(CC(C4)C2)C3)CC1 [UNC10302683A, AR9281]", "%", -19.88],
  ["CNc1nc(C)nc(N[C@H]2CCC[C@@H](C(=O)NCc3ccc(C#N)cc3C(F)(F)F)C2)n1 [UNC10302679A, GSK2256294A]", "%", -14.6]
]}

Hi there! I need Mean % for each item below, if you can.
1. CCC(=O)N1CCC(NC(=O)Nc2ccc(OC(F)(F)F)cc2)CC1 [UNC10302681A, TPPU]
2. O=C(NC1CC1)C(=O)C(Cc1ccccc1)NC(=O)[C@H]1CCC(=O)N1Cc1ccccc1 (stereo partly shown) [UNC10302676A, ABT-957 (Alicapistat)]

1. -8.1
2. -3.07

----------
# Target entity: cloned human or rodent CNS receptors, channels, and transporters (PDSP panel) (Homo sapiens)
# Construct: expressed in transfected cells
# Assay summary: PDSP GPCR panel primary binding assays at 10 μM
# Experimental setup: M2; primary assay, replicate 4
Exercise: for every item that follows, state its recorded Inhibition 4.
Numbers only, in %.

{"columns": ["Molecule", "Inhibition 4, %"],
 "data": [
  ["CNc1nc(C)nc(N[C@H]2CCC[C@@H](C(=O)NCc3ccc(C#N)cc3C(F)(F)F)C2)n1 [UNC10302679A, GSK2256294A]", 14.53]
]}

For every listed record, write down its Inhibition 4.
1. O=C(NC1CC1)C(=O)C(Cc1ccccc1)NC(=O)[C@H]1CCC(=O)N1Cc1ccccc1 (some centres unmarked) [UNC10302676A, ABT-957 (Alicapistat)]
2. CCC(=O)N1CCC(NC(=O)Nc2ccc(OC(F)(F)F)cc2)CC1 [UNC10302681A, TPPU]
3. O=c1oc2ccccc2cc1-c1cn2cc(Cc3ccc(F)cc3)sc2n1 [UNC10302680A, iMDK]
4. CC(=O)N1CCC(NC(=O)NC23CC4CC(CC(C4)C2)C3)CC1 [UNC10302683A, AR9281]

2.24
-6.61
-11.03
-3.41

----------
What Inhibition 3 was measured for each of the following?
# Target entity: cloned human or rodent CNS receptors, channels, and transporters (PDSP panel) (Homo sapiens, UniProt P21917)
# Construct: expressed in transfected cells
# Sequence (P21917 whole entry): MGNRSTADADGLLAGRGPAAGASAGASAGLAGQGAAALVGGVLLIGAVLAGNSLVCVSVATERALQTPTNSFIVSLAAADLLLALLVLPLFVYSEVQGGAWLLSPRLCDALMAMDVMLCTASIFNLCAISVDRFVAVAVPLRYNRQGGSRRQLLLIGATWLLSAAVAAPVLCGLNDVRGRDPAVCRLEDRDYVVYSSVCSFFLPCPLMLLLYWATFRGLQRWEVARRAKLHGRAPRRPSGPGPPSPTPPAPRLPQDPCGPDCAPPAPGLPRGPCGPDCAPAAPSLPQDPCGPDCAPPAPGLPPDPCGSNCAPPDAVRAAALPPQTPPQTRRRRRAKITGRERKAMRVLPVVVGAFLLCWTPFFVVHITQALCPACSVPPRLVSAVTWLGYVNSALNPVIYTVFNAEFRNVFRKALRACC
# Assay summary: PDSP GPCR panel primary binding assays at 10 μM
# Experimental setup: D4; primary assay, replicate 3
Numbers only, in %.

# batch size: 4; output Inhibition 3 per entry
1. CCC(=O)N1CCC(NC(=O)Nc2ccc(OC(F)(F)F)cc2)CC1 [UNC10302681A, TPPU]
2. CC(=O)N1CCC(NC(=O)NC23CC4CC(CC(C4)C2)C3)CC1 [UNC10302683A, AR9281]
3. O=C(NC1CC1)C(=O)C(Cc1ccccc1)NC(=O)[C@H]1CCC(=O)N1Cc1ccccc1 (stereo partly shown) [UNC10302676A, ABT-957 (Alicapistat)]
4. CNc1nc(C)nc(N[C@H]2CCC[C@@H](C(=O)NCc3ccc(C#N)cc3C(F)(F)F)C2)n1 [UNC10302679A, GSK2256294A]

0
-3.44
8.7
3.54
